inhibition at 10 min, 10 µM values by entry
Target: CYP2C9 (Homo sapiens, UniProt P11712)
Sequence (P11712 whole entry): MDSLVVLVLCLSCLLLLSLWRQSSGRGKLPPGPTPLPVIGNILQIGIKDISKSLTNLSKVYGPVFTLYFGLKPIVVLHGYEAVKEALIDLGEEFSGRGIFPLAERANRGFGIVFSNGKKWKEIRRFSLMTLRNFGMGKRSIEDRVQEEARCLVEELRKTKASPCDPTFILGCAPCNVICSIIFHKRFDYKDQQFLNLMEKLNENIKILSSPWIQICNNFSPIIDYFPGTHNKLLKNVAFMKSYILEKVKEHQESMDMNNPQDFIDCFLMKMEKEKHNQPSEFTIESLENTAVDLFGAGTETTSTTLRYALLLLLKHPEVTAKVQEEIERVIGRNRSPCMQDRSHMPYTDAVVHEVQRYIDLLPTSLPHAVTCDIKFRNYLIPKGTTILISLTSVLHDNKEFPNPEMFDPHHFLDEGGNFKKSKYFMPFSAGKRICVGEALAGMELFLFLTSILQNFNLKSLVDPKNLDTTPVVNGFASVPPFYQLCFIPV
Assay: Inhibition of CYP2C9 in human liver microsome at 10 uM using diclofenac as substrate incubated for 10 mins in presence of NADPH cofactor by LC-MS/MS analysis
Format: ADME
Details: liver microsomes, probe diclofenac
MEASUREMENT LABEL: inhibition at 10 min, 10 µM (%)

>  <SMI>
CNC(=O)c1noc(-c2cc(-c3ccc(C)cc3)c(O)cc2O)c1-c1ccc(CN2CCCCC2)cc1

>  <UOM>
%

>  <REPORTED>
44.6

$$$$
>  <SMI>
CCNC(=O)c1noc(-c2cc(-c3ccc(C)cc3)c(O)cc2O)c1-c1ccc(CN2CCCCC2)cc1

>  <UOM>
%

>  <REPORTED>
39.2

$$$$
>  <SMI>
CNC(=O)c1noc(-c2cc(-c3ccc(C)cc3)c(O)cc2O)c1-c1ccc(CN2CCOCC2)cc1

>  <UOM>
%

>  <REPORTED>
25.2

$$$$
>  <SMI>
CCNC(=O)c1noc(-c2cc(-c3ccc(C)cc3)c(O)cc2O)c1-c1ccc(CN2CCOCC2)cc1

>  <UOM>
%

>  <REPORTED>
36.5

$$$$
